# System: SRPK3;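 note: KINOMEscan kinase panel screen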
# SETUP CONDITIONS: concentration: 1 μM, replicates: in singlicate; n = 1
Each entry below carries its reported %Inh.
Write down the numeric answer in % and omit the unit.

>>> data_value("CCn1c(-c2nonc2N)nc2c(C#CC(C)(C)O)ncc(OCCCCN)c21.O=C(O)C(F)(F)F.O=C(O)C(F)(F)F")
18
>>> data_value("Nc1ncnc2c1nc(-c1ccccc1)n2-c1ccccc1")
9
>>> data_value("O=c1[nH]cc(-c2ccc(N3CCOCC3)cc2)c2sc(-c3cn[nH]c3)cc12")
0
>>> data_value("COc1cc(Nc2nccc(-c3c(-c4cccc(NC(=O)c5c(F)cccc5F)c4)nn4ncccc34)n2)cc(OC)c1OC")
0
>>> data_value("O=C(O)C(F)(F)F.O=C(O)C(F)(F)F.O=c1[nH]ccc2nc(N[C@@H]3CCCNC3)nc(Nc3ccc(S(=O)(=O)N4CCOCC4)cc3)c12")
95.2

Query :: %Inh lookup needed for "CN1CCN(Cc2cccc(-c3ccc4c(Nc5ccc(Oc6ccccc6)cc5)ccnc4c3)c2)CC1" , thanks.
Result :: 0

Query :: Please look up its %Inh: "Cn1cc(-c2ccc3c(c2)CCN3C(=O)Cc2cccc(Cl)c2)c2c(N)ncnc21"
Result :: 11

Query :: Suppose we examine the compound "CSc1cccc2c(-c3ccncn3)c(-c3ccc(F)cc3)nn12" ; what %Inh value has been reported?
Result :: 100
